- Target or test system: GSK3β (h) (Homo sapiens)
- Assay details: GSK-3β human kinase assay (SPA)
- Assay type: biochemical
- Stated conditions: read-out: GSK3B pIC50 (converted)
- Procedure: The in vitro inhibition of a panel of kinases was assessed using either the scintillation proximity assay (SPA) as described by Cook, N. D. et al., Advances in Experimental Medicine and Biology (1991), 36; p. 525-528; or the Fluorescence Resonance Energy Transfer (FRET) technology as described by Rodems, S. M. et al., Assay Drug Develop. Technol. (2002), 1; p. 9-19. […]
Endpoint name: IC50 (nM)

| Compound | IC50, nM |
| --- | --- |
| CCN1CCCCCC(=O)N2CCN(CC2)c2cccc3c2C(=CNc2cccc(c2)S(=O)(=O)N(C)CC1=O)C(=O)N3 (mixture of isomers) [Compound 1] | 1820 |
| COCCN1CCOc2cccc(c2)N/C=C2\C(=O)Nc3ncnc(c32)NCCN(C)C(=O)C1 [Compound 161] | 832 |
| COc1ccc2cc1OCCCCCC(=O)N(C)CCCNc1ncnc3c1/C(=C/N2)C(=O)N3 [Compound 66] | 77.6 |

(a) CN1CCCN(C)c2ncnc3c2/C(=C/Nc2cccc(c2)OCCCCCCC1=O)C(=O)N3 [Compound 53]
(b) CN1CCNC(=O)CCCCCOc2cccc(c2)N/C=C2\C(=O)Nc3ncnc1c32 [Compound 41]
Which of the two items, a and b , has the greater recorded IC50? Response format: the label of the selected entry. b

* * *

- Target or test system: GSK3β (h) (Homo sapiens, UniProt P49841)
- Sequence (P49841 whole entry): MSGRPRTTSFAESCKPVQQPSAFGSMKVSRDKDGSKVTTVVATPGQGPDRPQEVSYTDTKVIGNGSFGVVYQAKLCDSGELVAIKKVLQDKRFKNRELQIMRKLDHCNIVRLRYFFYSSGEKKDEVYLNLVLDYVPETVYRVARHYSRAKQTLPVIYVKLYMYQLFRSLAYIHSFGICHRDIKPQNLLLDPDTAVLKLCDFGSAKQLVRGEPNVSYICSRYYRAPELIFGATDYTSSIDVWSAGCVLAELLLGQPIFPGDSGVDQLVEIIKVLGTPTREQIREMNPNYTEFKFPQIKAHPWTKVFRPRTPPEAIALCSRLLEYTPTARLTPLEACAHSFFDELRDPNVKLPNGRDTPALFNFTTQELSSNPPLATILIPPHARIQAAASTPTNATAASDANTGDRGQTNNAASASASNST
- Assay details: GSK-3β human kinase assay (SPA)
- Format: biochemical
- Stated conditions: read-out: GSK3B pIC50 (converted)
Endpoint name: IC50 (nM)

Below, each entry is followed by its recorded IC50 result.
| Record smiles | Numeric value |
| --- | --- |
| CN1CCNc2ncnc3c2/C(=C/Nc2ccc(Cl)c(c2)OCCCN(C)[C@H](CO)C1=O)C(=O)N3 | 1550 |
| CN1CCCCCC(=O)N(C)CCCNc2ncnc3c2/C(=C/Nc2cccc(c2)C1)C(=O)N3 | 2750 |

(P) COc1cc2cc(c1OC)OCCCC(=O)N(C)CCCNc1ncnc3c1/C(=C/N2)C(=O)N3
(Q) CN1CCCCC(=O)N(C)CCCN(C)c2ncnc3c2/C(=C/Nc2ccc(Cl)c(c2)C1)C(=O)N3
Which of the two items, P and Q , has the greater recorded IC50? Response format: the label of the selected entry. Q

* * *

- Target or test system: AuroraB (h) (Homo sapiens)
- Assay details: Aurora-B human kinase assay (SPA)
- Assay type: biochemical
# maps each entry to its AuroraB pIC50
API note: the answer field is a bare number with no unit suffix.

| Compound | Numeric value |
| --- | --- |
| COc1ccc2cc1OCCCC(=O)N(C1CCCCC1)CCCNc1ncnc3c1C(=CN2)C(=O)N3 (mixture of isomers) | 6.41 |
| COc1ccc2cc1OCCCCC(=O)N(C)CCCNc1ncnc3c1C(=CN2)C(=O)N3 (mixture of isomers) | 7.75 |

Given the compound CN1CCCNc2ncnc3c2C(=CNc2cccc(c2)OCCCC1=O)C(=O)N3 (mixture of isomers) , what is its reported AuroraB pIC50? 6.88

* * *

- Test system: H460
- Assay details: Cellular proliferation assay (Alamar blue), H460
- Type: cell-based
- Stated conditions: Homo sapiens, NCI-H460, H460 cells, 72 hours with compound, 10% FCS, read-out: pIC50 H460 (converted)
# maps each entry to its IC50

| Compound | Endpoint name | Result |
| --- | --- | --- |
| CC(C)N1CCCCCC(=O)N2CCN(CC2)c2ncnc3c2/C(=C/Nc2ccc(F)c(c2)C1)C(=O)N3 [Compound 28] | IC50 | > 10 µM |
| O=C1Nc2ncnc3c2/C1=C/Nc1ccc(c(Cl)c1)OCCCCCCC(=O)N1CCN3CC1 [Compound 20] | IC50 | > 10 µM |
| COc1ccc2cc1OCCCCCC(=O)N1CCN(CC1)c1ncnc3c1/C(=C/N2)C(=O)N3 [Compound 18] | IC50 | > 10 µM |
| CN1CCCCCC(=O)N2CCN(CC2)c2ncnc3c2/C(=C/Nc2cccc(c2)C1)C(=O)N3 [Compound 24] | IC50 | > 10 µM |
| COc1ccc2cc1OCCCC(=O)N(C)CCCN(C)c1ncnc3c1/C(=C/N2)C(=O)N3 [Compound 31] | IC50 | 1 µM |

Given the compound O=C1Nc2ncnc3c2/C1=C/Nc1ccc(c(F)c1)OCCCCCC(=O)N1CCN3CC1 [Compound 22] , what is its reported IC50? > 10 µM

Given the compound COc1ccc2cc1OCCCC(=O)N1CCN(CC1)c1ncnc3c1/C(=C/N2)C(=O)N3 [Compound 17] , what is its reported IC50? > 10 µM

Given the compound COc1ccc2cc1OCCCC(=O)N(C(C)C)CCN(C)c1ncnc3c1/C(=C/N2)C(=O)N3 [Compound 32] , what is its reported IC50? 2.34 µM

Given the compound COc1ccc2cc1OCCCC(=O)N(C)CCCNc1ncnc3c1/C(=C/N2)C(=O)N3 [Compound 9] , what is its reported IC50? 0.372 µM

Given the compound O=C1Nc2ncnc3c2C1=CNc1ccc(cc1)S(=O)(=O)NCCCCC(=O)N1CCN3CC1 (mixture of isomers) [Compound 15] , what is its reported IC50? > 10 µM

Given the compound O=C1Nc2ncnc3c2C1=CNc1cc(ccc1Cl)OCCCCC(=O)N1CCN3CC1 (mixture of isomers) [Compound 13] , what is its reported IC50? > 10 µM

Given the compound O=C1Nc2ncnc3c2C1=CNc1ccc(c(Cl)c1)OCCCCCC(=O)N1CCN3CC1 (mixture of isomers) [Compound 14] , what is its reported IC50? > 10 µM

* * *

- Target or test system: GSK3β (h) (Homo sapiens, UniProt P49841)
- Assay details: GSK-3β human kinase assay (SPA)
- Format: biochemical
- Stated conditions: read-out: GSK3B pIC50 (converted)
Endpoint name: IC50 (nM)

| Record smiles | Unit info | IC50 |
| --- | --- | --- |
| COc1cc2cc(c1OC)CN(C)CCCCC(=O)N(C)CCCNc1ncnc3c1/C(=C/N2)C(=O)N3 | nM | 3160 |
| CN1CCCNc2ncnc3c2/C(=C/Nc2ccc(NCc4ccccc4)c(c2)OCCCC1=O)C(=O)N3 | nM | 912 |
| CN1CCNc2ncnc3c2/C(=C/Nc2ccc(Cl)c(c2)OCC(=O)N2CCC[C@@H]2C1)C(=O)N3 | nM | 5010 |
| N#Cc1ccc2cc1OCCCC(=O)N1CCN(CC1)c1ncnc3c1/C(=C/N2)C(=O)N3 | nM | 776 |
| CN1CCCNc2ncnc3c2/C(=C/Nc2ccc(NC(=O)Nc4ccccc4)c(c2)OCCCC1=O)C(=O)N3 | nM | 3550 |
| CN1CCCC(=O)N(C)CCCNc2ncnc3c2/C(=C/Nc2cccc(c2)C1)C(=O)N3 | nM | 851 |

(P) CN1CCCNc2ncnc3c2/C(=C/Nc2cccc(c2)OCCCCCCC1=O)C(=O)N3
(Q) CN1CCNc2ncnc3c2/C(=C/Nc2ccc(Cl)c(c2)OCCCCCCC1=O)C(=O)N3
(R) COc1ccc2cc1OCCCCCC(=O)N(C)CCNc1ncnc3c1/C(=C/N2)C(=O)N3
(S) CN1CCN(c2ccc3cc2CN(C)CCCC(=O)N(C)CCCNc2ncnc4c2/C(=C/N3)C(=O)N4)CC1
Provide the items ranked by increasing IC50. Could you list the labels in the order requested? S, R, P, Q
(S: 51.3 nM, R: 85.1 nM, P: 1070 nM, Q: 2190 nM)

(I) CN1CCCCCCC(=O)N(C)CCNc2ncnc3c2/C(=C/Nc2cccc(c2)C1)C(=O)N3
(II) CN1CCNc2ncnc3c2/C(=C/Nc2cccc(c2)OCCCCC1=O)C(=O)N3
Which of the two items, I and II , has the greater recorded IC50? Response format: the label of the selected entry. I
(I: 2190 nM, II: 295 nM)

(P) CN1CCCNc2ncnc3c2/C(=C/Nc2ccc(Cl)c(c2)OCCCCC1=O)C(=O)N3
(Q) CN1CCNc2ncnc3c2/C(=C/Nc2cccc(c2)OCCN(C)[C@H](CO)C1=O)C(=O)N3
Which of these two has the smaller recorded IC50: P or Q ? Response format: the label of the selected entry. P
(P: 63.1 nM, Q: 759 nM)

* * *

- Target or test system: AuroraB (h) (Homo sapiens, UniProt Q96GD4)
- Sequence (Q96GD4 whole entry): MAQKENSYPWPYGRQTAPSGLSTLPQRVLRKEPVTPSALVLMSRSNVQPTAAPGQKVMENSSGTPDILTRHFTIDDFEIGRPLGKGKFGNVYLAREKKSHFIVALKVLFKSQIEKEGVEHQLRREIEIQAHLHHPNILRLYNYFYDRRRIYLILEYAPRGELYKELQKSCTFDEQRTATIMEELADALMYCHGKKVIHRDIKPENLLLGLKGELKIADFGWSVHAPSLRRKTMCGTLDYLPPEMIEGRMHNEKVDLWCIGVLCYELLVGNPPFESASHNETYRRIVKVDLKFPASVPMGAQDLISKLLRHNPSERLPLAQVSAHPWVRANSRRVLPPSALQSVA
- Assay details: Aurora-B human kinase assay (SPA)
- Assay type: biochemical
Endpoint name: AuroraB pIC50
API note: the answer field is a bare number with no unit suffix.

Below, each entry is followed by its recorded AuroraB pIC50 result.
| Compound | Numeric value |
| --- | --- |
| CN1CCNc2ncnc3c2C(=CNc2cccc(c2)OCCCC1=O)C(=O)N3 (mixture of isomers) | 6.33 |
| COc1ccc2cc1OCCCCCC(=O)NCCN(C)c1ncnc3c1C(=CN2)C(=O)N3 (mixture of isomers) | 5.13 |
| CN1CCCNc2ncnc3c2C(=CNc2ccc(N4CCOCC4)c(c2)OCCCCC1=O)C(=O)N3 (mixture of isomers) | 6.15 |

Now consider the entry below.
Given the compound COc1ccc2cc1OCCCC(=O)N(C(C)C)CCCCN(C)c1ncnc3c1C(=CN2)C(=O)N3 (mixture of isomers) , what is its reported AuroraB pIC50? 5
